Test system: Mus musculus
ASSAY TEXT: Analgesic activity against AcOH writhing after po administration.
Each record here notes measured ED50.

Check out these entries, answers already filled in.
>>> print(df.to_string())
                                  molecule  measurement
0        COc1ccc(-c2cc(N)cc(CC(=O)O)c2)cc1   > 50 mg/kg
1      CC(=O)Nc1cc(CC(=O)O)cc(-c2ccccc2)c1   > 50 mg/kg
2        Nc1cc(CC(=O)O)cc(-c2ccc(Cl)cc2)c1   > 50 mg/kg
3       COc1cc(CC(=O)O)cc(-c2ccc(Cl)cc2)c1   16.1 mg/kg
4  CC(=O)Nc1cc(CC(=O)O)cc(-c2ccc(Cl)cc2)c1   > 50 mg/kg

Given the molecule `O=C(O)Cc1cc(F)cc(-c2ccc(Cl)cc2)c1` , what is its reported ED50?
> 50 mg/kg

Could you do the same for `COc1ccc2c(c1)c(CC(=O)O)c(C)n2C(=O)c1ccc(Cl)cc1` , please?
3.1 mg/kg

Could you do the same for CC(C(=O)O)c1cc(F)cc(-c2ccccc2)c1 (centres undefined) , please?
> 50 mg/kg

Could you do the same for COc1ccc(-c2cccc(C(C)C(=O)O)c2)cc1 (centres undefined) , please?
> 50 mg/kg

Could you do the same for `COc1ccc(-c2cccc(CC(=O)O)c2)cc1` , please?
> 50 mg/kg

Could you do the same for CC(C(=O)O)c1cc(Cl)cc(-c2ccccc2)c1 (centres undefined) , please?
> 50 mg/kg

Could you do the same for CC(C(=O)O)c1cccc(-c2ccccc2)c1 (centres undefined) , please?
26.8 mg/kg

Could you do the same for `Nc1cc(CC(=O)O)cc(-c2ccccc2)c1` , please?
> 50 mg/kg

Could you do the same for `O=C(O)Cc1cc(Cl)cc(-c2ccccc2)c1` , please?
> 50 mg/kg

Could you do the same for `O=C(O)Cc1cc(Cl)cc(-c2ccc(Cl)cc2)c1` , please?
> 50 mg/kg

Could you do the same for CC(C(=O)O)c1cc(Cl)cc(-c2ccc(Cl)cc2)c1 (centres undefined) , please?
> 50 mg/kg

Could you do the same for CC(C(=O)O)c1cccc(-c2ccc(Cl)cc2)c1 (centres undefined) , please?
45 mg/kg

Could you do the same for CC(C(=O)O)c1cc(F)cc(-c2ccc(Cl)cc2)c1 (centres undefined) , please?
> 50 mg/kg

Could you do the same for `O=C(O)Cc1cccc(-c2ccccc2)c1` , please?
> 50 mg/kg

Could you do the same for `COc1ccc(-c2cc(Cl)cc(CC(=O)O)c2)cc1` , please?
> 50 mg/kg

---

ASSAY TEXT: Acute toxicity was determined 168 hr after a single ip injection to groups of four male ddY mice.
Assay type: organism-based
SETUP CONDITIONS: mouse, in vivo
Each record here notes measured LD50 at 168 h.
Reply with just the number (in mg/kg).

Check out these entries, answers already filled in.
In [3]: df
Out[3]:
                                   molecule  unit_abbreviation  measurement
0  COc1ccc(-c2cc(Cl)cc(C(C)C(=O)O)c2)cc1 (stereo unspecified)              mg/kg          283
1  CC(C(=O)O)c1cc(Cl)cc(-c2ccc(Cl)cc2)c1 (stereo unspecified)              mg/kg          200
2            O=C(O)Cc1cccc(-c2ccc(Cl)cc2)c1              mg/kg          238

Then this molecule:
Given the molecule `COc1ccc(-c2cc(N)cc(CC(=O)O)c2)cc1` , what is its reported LD50 at 168 h?
800

---

Each record here notes measured ED50.
Test system: Mus musculus
ASSAY TEXT: Analgesic activity against AcOH writhing after po administration.

Check out these entries, answers already filled in.
>>> df
                                   compound  measurement
0            O=C(O)Cc1cccc(-c2ccc(Cl)cc2)c1   > 50 mg/kg
1  COc1ccc(-c2cc(Cl)cc(C(C)C(=O)O)c2)cc1 (centres undefined)   > 50 mg/kg
2             O=C(O)Cc1cc(F)cc(-c2ccccc2)c1   > 50 mg/kg

Given the compound `COc1ccc(-c2cc(CC(=O)O)cc(NC(C)=O)c2)cc1` , what is its reported ED50?
> 50 mg/kg
